- measured.target: T1, cynomolgus NKG2D-Fc fusion protein (cynomolgus; human, UniProt P61252 73-216)
- T1 construct: extracellular domain; also called cynomolgus recombinant NKG2D-Fc; cynomolgus recombinant NKG2D; not shown: human IgG1 Fc domain
- T1 sequence (looked up): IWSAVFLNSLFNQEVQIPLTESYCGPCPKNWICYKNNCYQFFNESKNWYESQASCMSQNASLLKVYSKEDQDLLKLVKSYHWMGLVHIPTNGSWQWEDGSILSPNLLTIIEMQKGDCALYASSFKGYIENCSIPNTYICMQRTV
- test.details: ELISA on coated NKG2D-Fc

binder | binding result
ADI-29429 (antibody, V domains shown) VH: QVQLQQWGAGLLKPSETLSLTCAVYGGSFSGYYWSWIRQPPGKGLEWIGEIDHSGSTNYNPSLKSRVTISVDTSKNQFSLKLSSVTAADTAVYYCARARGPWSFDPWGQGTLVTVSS VL: DIQMTQSPSTLSASVGDRVTITCRASQSIGSWLAWYQQKPGKAPKLLIYKASSLESGVPSRFSGSGSGTEFTLTISSLQPDDFATYYCQQYELYSYTFGGGTKVEIK | binds
ADI-27749 (antibody, V domains shown, also called A49) VH: EVQLVESGGGLVKPGGSLRLSCAASGFTFSSYSMNWVRQAPGKGLEWVSSISSSSSYIYYADSVKGRFTISRDNAKNSLYLQMNSLRAEDTAVYYCARGAPMGAAAGWFDPWGQGTLVTVSS VL: DIQMTQSPSSVSASVGDRVTITCRASQGISSWLAWYQQKPGKAPKLLIYAASSLQSGVPSRFSGSGSGTDFTLTISSLQPEDFATYYCQQGVSFPRTFGGGTKVEIK | binds
ADI-29379 (antibody, V domains shown, also called E79) VH: QVQLVQSGAEVKKPGASVKVSCKASGYTFTSYYMHWVRQAPGQGLEWMGIINPSGGSTSYAQKFQGRVTMTRDTSTSTVYMELSSLRSEDTAVYYCARGAPNYGDTTHDYYYMDVWGKGTTVTVSS VL: EIVMTQSPATLSVSPGERATLSCRASQSVSSNLAWYQQKPGQAPRLLIYGASTRATGIPARFSGSGSGTEFTLTISSLQSEDFAVYYCQQYDDWPFTFGGGTKVEIK | binds
